Item-by-item account of Population Apoptotic (%)
Test system: U2OS
Test method notes: Multiplex assay against U2OS
Type: toxicity, cell-based
Experimental conditions: human, 24 h, 10 µM, compound concentration 10 uM, replicate 2
Non-standard residues stand in square brackets, D forms with d. Residues, ends and D or L forms follow the SMILES beside them.
Measure: Population Apoptotic (%)

{"Molecule": "CC(C)C[C@@H]1NC(=O)[C@@H](C(C)C)NC(=O)[C@@H]2CCCN2C(=O)[C@@H](CC(=O)O)NC(=O)[C@@H](Cc2c[nH]c3ccccc23)NC1=O [BQ-123] (cyclo(L[dW][dD]P[dV]))", "Test value": 100}
{"Molecule": "OCCCNc1cc(-c2ccnc(Nc3cccc(Cl)c3)n2)ccn1", "Test value": 95}
{"Molecule": "COCCCN1CCC(NC(=O)c2cc(Cl)c(N)c3c2OCC3)CC1 [PRUCALOPRIDE]", "Test value": 77}
{"Molecule": "CC(C)(O)C(=O)N1CCN(c2ccc(C(F)(F)F)c(C3=C(c4c[nH]c5ccccc45)C(=O)NC3=O)c2)CC1", "Test value": 70}
{"Molecule": "Cn1cc(C(=O)OCC2CCN(CCNS(C)(=O)=O)CC2)c2ccccc21", "Test value": 64}
{"Molecule": "COc1cc(Nc2ncc3c(n2)-c2ccc(Cl)cc2C(c2c(F)cccc2OC)=NC3)ccc1C(=O)O", "Test value": 90}
{"Molecule": "Cc1cc(NC(=O)NCCN2CCC(O)(Cc3ccccc3)CC2)c2ccccc2n1", "Test value": 75}
{"Molecule": "Cc1nn(C)c2nc(NNC(=O)Nc3cc(Cl)nc(Cl)c3)cc(C(C)C)c12", "Test value": 69}
